System: HLA-DRα class II promoter
Experiment: Transient transfection CAT assay, HLA-DRα class II promoter chimeras in FRTL-5 cells
Type: cell-based
Conditions: FRTL-5; 10 μM; 100 U/ml γ-interferon; 6H medium; read-out: % inhibition of IFN-increased p(−137)CAT class II promoter activity
Property: inhibition at 10 µM; scope: individual molecules
Measured quantity: inhibition at 10 µM

* CSc1nccn1C [Compound 7, S-Methylmethimazole] | 0%
* Cn1ccnc1S [Compound 1, 1-Methylimidazole-2-thiol] | 0%
* Cn1c(-c2ccccc2)cnc1S [Compound 10, 5-Phenylmethimazole] | 45%
* Cc1cnc(S)n1C [Compound 9, 5-Methylmethimazole] | 0%
* Cc1ncc([N+](=O)[O-])n1CCO [Compound 2, 2-Methyl-5-nitro-1-imidazole ethanol] | 0%

====

Property: inhibition at 5000 µM; scope: individual compounds
Tested on: HLA-DRα class II promoter
Experiment: Transient transfection CAT assay, HLA-DRα class II promoter chimeras in FRTL-5 cells
Assay type: cell-based
Conditions: FRTL-5; 5 mM; 100 U/ml γ-interferon; 6H medium; read-out: % inhibition of IFN-increased p(−137)CAT class II promoter activity
Measured quantity: inhibition at 5000 µM (%)

• Cc1ccc2[nH]c(S)nc2c1 = 44
• CSc1nccn1C = 84
• Cc1ncc([N+](=O)[O-])n1CCO = 80
• O=[N+]([O-])c1ccc2[nH]c(S)nc2c1 = 39
• Cn1ccnc1S = 87
• Cc1cnc(S)n1C = 44

====

System: MHC class I RNA
Assay: Northern analysis of MHC class I RNA levels in FRTL-5 cells
Format: cell-based, rat
Details: Rattus norvegicus, FRTL-5; 1 mM; 100 U/ml γ-interferon, 6H medium (TSH), 40 hours; read-out: % inhibition of class I RNA expression (γ-interferon-treated)
Label Yes when inhibition at 1000 µM is at or above 20%; anything below gets No.

* Cc1cnc(S)n1C | No
* Cc1ccc2[nH]c(S)nc2c1 | Yes
* CSc1nccn1C | Yes
* Cn1c(-c2ccccc2)cnc1S | Yes
* Cn1ccnc1S | Yes
* Cc1ncc([N+](=O)[O-])n1CCO | Yes
* O=[N+]([O-])c1ccc2[nH]c(S)nc2c1 | No

====

Tested on: γ-IFN-increased protein/DNA complex with DRα 5′-flanking region probe
Assay: Gel shift (EMSA) with 137 class II probe, extracts from γ-IFN-treated FRTL-5 cells
Format: cell-based, rat
Settings: 1 mM; 137 class II probe; γ-IFN-treated 5H cells
Label class 1 when % inhibition of IFN-increased complex formation is at or above 40%; anything below gets class 0.

• O=[N+]([O-])c1ccc2[nH]c(S)nc2c1 = class 1
• CSc1nccn1C = class 1
• Cc1cnc(S)n1C = class 0
• Cn1ccnc1S = class 0
• Sc1ncc[nH]1 = class 0
• Cn1c(-c2ccccc2)cnc1S = class 1
• Sc1nc2ccccc2[nH]1 = class 1
• Cc1ncc([N+](=O)[O-])n1CCO = class 1
• Cc1ccc2[nH]c(S)nc2c1 = class 0
• Cn1ccn(C)c1=S = class 1

====

Tested on: MHC class II RNA
Experiment: Northern analysis of MHC class II RNA levels in FRTL-5 cells
Type: cell-based, rat
Details: 100 μM; 100 U/ml γ-interferon, 6H medium, 40 hours
Property: % inhibition of class II RNA expression; scope: individual compounds
Measured quantity: % inhibition of class II RNA expression (%)

• Cc1ncc([N+](=O)[O-])n1CCO = 11
• Cn1ccn(C)c1=S = 32
• CSc1nccn1C = 22
• Cn1c(-c2ccccc2)cnc1S = 75

====

Test system: swine class I promoter (PD1)
Assay: Luciferase assay, FRTL-5 cells stably transfected with class I promoter-luciferase chimeras
Format: cell-based
Conditions: Sus scrofa, FRTL-5; 100 μM; 6H medium, 40 hours; read-out: % inhibition of basal p(−203)LUC class I promoter activity
Property: inhibition at 100 µM; scope: individual compounds
Measured quantity: inhibition at 100 µM (%)

• Sc1ncc[nH]1 = 0
• Cc1ncc([N+](=O)[O-])n1CCO = 0
• Cn1ccnc1S = 0
• Cc1cnc(S)n1C = 0
• Cc1ccc2[nH]c(S)nc2c1 = 0
• Cn1c(-c2ccccc2)cnc1S = 51
• CSc1nccn1C = 10
• O=[N+]([O-])c1ccc2[nH]c(S)nc2c1 = 0

====

Property: % inhibition of IFN-increased complex formation; scope: individual molecules
Tested on: γ-IFN-increased protein/DNA complex with DRα 5′-flanking region probe
Experiment: Gel shift (EMSA) with 137 class II probe, extracts from γ-IFN-treated FRTL-5 cells
Type: cell-based, rat
Details: 100 μM; 137 class II probe; γ-IFN-treated 5H cells
Measured quantity: % inhibition of IFN-increased complex formation (%)

- Sc1nc2ccccc2[nH]1: 5
- Cc1ncc([N+](=O)[O-])n1CCO: 0
- Cc1cnc(S)n1C: 0
- Cc1ccc2[nH]c(S)nc2c1: 0
- Sc1ncc[nH]1: 0
- Cn1ccnc1S: 0
- Cn1c(-c2ccccc2)cnc1S: 78
- O=[N+]([O-])c1ccc2[nH]c(S)nc2c1: 0
- Cn1ccn(C)c1=S: 21
- CSc1nccn1C: 16

====

Test system: swine class I promoter (PD1)
Test: Luciferase assay, FRTL-5 cells stably transfected with class I promoter-luciferase chimeras
Type: cell-based
Conditions: Sus scrofa, FRTL-5; 10 μM; 100 U/ml γ-interferon; 6H medium, 40 hours; read-out: % inhibition of IFN-increased p(−203)LUC class I promoter activity
Measured quantity: inhibition at 10 µM (%)

• Cn1c(-c2ccccc2)cnc1S = 45
• Cc1ncc([N+](=O)[O-])n1CCO = 0
• CSc1nccn1C = 0
• O=[N+]([O-])c1ccc2[nH]c(S)nc2c1 = 0
• Cc1cnc(S)n1C = 0
• Cn1ccnc1S = 0

====

Test system: MHC class I antigen expression
Assay: Flow cytometry of IFN-increased class I antigen expression in FRTL-5 cells
Format: cell-based, rat
Details: 100 U/ml γ-interferon, 6H medium (TSH), 40 hours
Procedure: In this experiment 10^6 cells were incubated with MHC class II or MHC class I-specific antibodies as described (Montani, V., et al., ibid (1998b); Saji, M., et al., ibid (1992a); Balducci-Silano, P. L., et al., Endocrinology 139:2309-2313 (1998)). […] The concentration needed to achieve suppression of the interferon induced class I or class II surface expression was determined by testing different concentrations of the compounds (Table 18). […]
Property: Concentration to inhibit IFN-increased antigen expression, Class I; scope: individual molecules
Measured quantity: Concentration to inhibit IFN-increased antigen expression, Class I (µM)

- CSc1nccn1C [Compound 7, S-Methylmethimazole]: 424
- Cn1ccn(C)c1=S [Compound 8, N-Methylmethimazole]: 356
- Cn1c(-c2ccccc2)cnc1S [Compound 10, 5-Phenylmethimazole]: 40
- Cn1ccnc1S [Compound 1, 1-Methylimidazole-2-thiol]: 5000
- Cc1ncc([N+](=O)[O-])n1CCO [Compound 2, 2-Methyl-5-nitro-1-imidazole ethanol]: 500

====

Test system: swine class I promoter (PD1)
Assay: Transient transfection CAT assay, class I promoter chimeras in FRTL-5 cells
Format: cell-based
Conditions: Sus scrofa, FRTL-5; 1.0 mM; 100 U/ml γ-interferon; 6H medium, 40 hours; read-out: % inhibition of IFN-increased p(−203)CAT class I promoter activity
Measured quantity: inhibition at 1000 µM (%)

* Cn1ccnc1S | 35
* Cn1c(-c2ccccc2)cnc1S | 90
* Cc1ncc([N+](=O)[O-])n1CCO | 45
* Cc1cnc(S)n1C | 10
* CSc1nccn1C | 50

====

System: Y box protein (TSEP-1) RNA
Assay: Northern analysis of Y box protein (TSEP-1) RNA levels in FRTL-5 cells
Format: cell-based, rat
Conditions: 100 μM compound alone, 40 hours
Measured quantity: Y box protein (TSEP-1) RNA level, compound ALONE (%)

* Cc1ncc([N+](=O)[O-])n1CCO [Compound 2, 2-Methyl-5-nitro-1-imidazole ethanol] | 104
* CSc1nccn1C [Compound 7, S-Methylmethimazole] | 111
* Cn1c(-c2ccccc2)cnc1S [Compound 10, 5-Phenylmethimazole] | 124
* Cn1ccn(C)c1=S [Compound 8, N-Methylmethimazole] | 119
* Cn1ccnc1S [Compound 1, 1-Methylimidazole-2-thiol] | 105
* Sc1ncc[nH]1 [Compound 3, 2-Mercaptoimidazole] | 102

====

Tested on: Y box protein (TSEP-1) RNA
Assay: Northern analysis of Y box protein (TSEP-1) RNA levels in FRTL-5 cells
Format: cell-based, rat
Settings: 100 μM compound + γIFN, 40 hours
y if Y box protein (TSEP-1) RNA level, compound +γIFN is below 80%. n if not; exact matches included in n.

• CSc1nccn1C = n
• Cn1ccn(C)c1=S = y
• Cc1ncc([N+](=O)[O-])n1CCO = y
• Sc1ncc[nH]1 = y
• Cn1c(-c2ccccc2)cnc1S = n
• Cn1ccnc1S = y
